- System: sugar beet
- assay-summary: Test B pre/postemergence sugar beet
- Assay type: in vivo, Beta vulgaris
- run-conditions: Rate 250 g/ha, Postemergence; scale 0 to 10, 0 is no effect, 10 is complete control
experimental-endpoint: Sugarbeets plant response rating

Example entries and their recorded answers appear below.
1. CC(C)N(C(=O)n1oc(=O)n(C(C)C2=NOCC2)c1=O)c1ccc(Cl)cc1 (racemic) = 0
2. CC(C)N(C(=O)n1oc(=O)n(CCCCl)c1=O)c1ccccc1 = 3
3. COC1CCC(Cn2c(=O)on(C(=O)N(c3ccc(F)cc3)C(C)C)c2=O)=NO1 (stereo not shown) = 2

For the next question, use this molecule.
Consider the molecule shown here: COc1ccc(N(C(=O)n2oc(=O)n(C(C)C)c2=O)C(C)C)cc1 What is its recorded Sugarbeets plant response rating?
0

Reference for the values: patent US6737383B1
